Molecular target: Kelch-like ECH-associated protein 1 (Homo sapiens)
Assay: Binding affinity to recombinant human Keap1 by SPR analysis
Active and inactive are the calls of the source. No cut-off for these calls is given here.
Pick one and only one: Yes (active), No (inactive)

Lookup: Query: recorded result category for CC(=O)O[C@H]1[C@@H](OC(=O)CC(C)C)[C@](O)(CO)[C@@H]2[C@H](OC(C)=O)[C@@]3(O)[C@H](/C=C(CO)\C=C/[C@H](OC(=O)COC(=O)CC(C)C)[C@@]2(C)[C@H]1OC(C)=O)OC(=O)[C@@H]3C in this test
Found: No

Lookup: Assay outcome for CC(=O)O[C@H]1[C@@H](O)[C@](O)(CO)[C@@H]2[C@H](OC(C)=O)[C@@]3(O)[C@H](/C=C(COC(=O)CC(C)C)\C=C/[C@H](OC(C)=O)[C@@]2(C)[C@H]1OC(C)=O)OC(=O)[C@@H]3C : what was it?
Found: No

Lookup: Hi, sorry to bother you, what did the test record for CC(=O)O[C@H]1/C=C\C(CO)=C/[C@@H]2OC(=O)[C@H](C)[C@@]2(O)[C@@H](OC(C)=O)[C@H]2[C@@](O)(CO)[C@H](O)[C@H](OC(=O)CC(C)C)[C@H](OC(C)=O)[C@]12C ?
Found: No

Lookup: Given C=C1[C@H]2O[C@]3([C@@H](C)C(=O)O[C@H]3[C@H]1Cl)[C@@H](OC(C)=O)[C@H]1[C@@]3(CO3)[C@H](OC(C)=O)C[C@H](OC(C)=O)[C@]1(C)[C@@H](OC(C)=O)[C@@H]2OC(C)=O , state the outcome it received in this test.
Found: Yes

* * *

Biological target: Kelch-like ECH-associated protein 1 (Homo sapiens, UniProt Q14145)
Sequence (Q14145 whole entry): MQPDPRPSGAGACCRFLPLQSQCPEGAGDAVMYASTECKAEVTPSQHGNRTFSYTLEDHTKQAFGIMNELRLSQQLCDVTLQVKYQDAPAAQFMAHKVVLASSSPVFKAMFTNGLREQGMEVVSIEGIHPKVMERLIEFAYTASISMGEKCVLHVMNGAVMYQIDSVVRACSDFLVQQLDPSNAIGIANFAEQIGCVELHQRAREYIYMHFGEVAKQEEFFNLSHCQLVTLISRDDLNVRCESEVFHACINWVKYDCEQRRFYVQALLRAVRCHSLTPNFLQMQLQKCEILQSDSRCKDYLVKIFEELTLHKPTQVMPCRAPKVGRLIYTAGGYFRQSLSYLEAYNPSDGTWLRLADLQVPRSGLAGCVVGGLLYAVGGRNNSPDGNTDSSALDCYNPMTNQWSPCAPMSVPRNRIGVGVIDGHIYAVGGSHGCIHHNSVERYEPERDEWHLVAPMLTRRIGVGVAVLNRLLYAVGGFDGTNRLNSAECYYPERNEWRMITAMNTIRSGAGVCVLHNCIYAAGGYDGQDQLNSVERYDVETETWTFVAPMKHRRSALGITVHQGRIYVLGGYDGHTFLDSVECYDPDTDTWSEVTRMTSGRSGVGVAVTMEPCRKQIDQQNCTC
Assay: Binding affinity to recombinant human Keap1 by SPR analysis
Activity calls are given as the source filed them. The calls are words filed in the database; no cut-off is given here.
Would you mind answering with one of these outcomes? 1 (active), 0 (inactive)

Use these answered entries as a reference point.
MOL	LABEL CLASS
C=C1[C@H]2O[C@]3([C@@H](C)C(=O)O[C@H]3[C@H]1Cl)[C@@H](OC(C)=O)[C@H]1[C@@](O)(CCl)CC[C@H](OC(C)=O)[C@]1(C)[C@@H](OC(C)=O)[C@@H]2OC(C)=O	1
C=C1[C@H](Cl)[C@@H]2OC(=O)[C@H](C)[C@]23O[C@]1(O)C[C@H](OC(C)=O)[C@@]1(C)[C@@H](OC(C)=O)C[C@@H](OC(C)=O)[C@]2(CO2)[C@@H]1[C@@H]3OC(C)=O	1
CC(=O)O[C@H]1CC[C@](O)(CO)[C@@H]2[C@H](OC(C)=O)[C@@]3(O)[C@H](/C=C(CO)\C=C/[C@H](OC(=O)COC(=O)CC(C)C)[C@@]12C)OC(=O)[C@@H]3C	0
C=C1[C@H](OC(=O)CC(C)C)C[C@H](OC(C)=O)[C@@]2(C)[C@@H](OC(C)=O)C[C@@H](OC(C)=O)[C@]3(CO3)[C@@H]2[C@H](OC(C)=O)[C@]2(O)[C@@H](C)C(=O)O[C@H]2[C@H]1Cl	1

Then there is this compound:
Lookup: Please share the test call associated with C=C1[C@H]2O[C@]3([C@@H](C)C(=O)O[C@H]3[C@H]1Cl)[C@@H](OC(C)=O)[C@H]1[C@]3(CC[C@H](OC(C)=O)[C@]1(C)[C@@H](OC(C)=O)[C@@H]2OC(C)=O)CO3 .
Found: 1

* * *

Target: UniProtKB Q14145
Assay: Binding affinity to recombinant human Keap1 assessed as equilibrium dissociation constant by SPR analysis
pKd: −log10 of the molar value.
PROPERTY MEASURED: pKd

MOL	ASSAY RESULT
CC(=O)O[C@H]1/C=C\C(CO)=C/[C@@H]2OC(=O)[C@H](C)[C@@]2(O)[C@@H](OC(C)=O)[C@H]2[C@@](O)(CO)CC[C@H](OC(C)=O)[C@]12C	5.18
CCOCC1=C/[C@@H]2OC(=O)[C@H](C)[C@@]2(O)[C@@H](OC(C)=O)[C@H]2[C@@]3(CO3)[C@H](OC(C)=O)C[C@H](OC(C)=O)[C@]2(C)[C@@H](OC(C)=O)/C=C\1	5.21
C=C1[C@H]2O[C@]3([C@@H](C)C(=O)O[C@H]3[C@H]1Cl)[C@@H](OC(C)=O)[C@H]1[C@]3(CC[C@H](OC(C)=O)[C@]1(C)[C@@H](OC(C)=O)[C@@H]2OC(C)=O)CO3	5.19

* * *

Below, each entry is listed alongside its reported inhibition at 10 µM.
Tested on: BMDM
Test: Anti-osteoclastogenesis activity in C57BL/6 mouse BMDM cells assessed as inhibition of RANKL-induced osteoclastogenesis at 10 uM incubated for 7 days in the presence of M-CSF by TRAP-staining based microscopic analysis relative to control
Type: functional
Settings: C57BL/6, BMDM, 168 h, time 7 day
Give the value, in units of %, as a plain number.

Look over these answered cases.
MOLECULE	ASSAYED TARGET	inhibition at 10 µM [%]
CC(=O)O[C@H]1/C=C\C(CCl)=C/[C@@H]2OC(=O)[C@H](C)[C@@]2(O)[C@@H](OC(C)=O)[C@H]2[C@@]3(CO3)[C@H](OC(C)=O)C[C@H](OC(=O)CC(C)C)[C@]12C	BMDM	18
CC(=O)O[C@H]1/C=C\C(CO)=C/[C@@H]2OC(=O)[C@H](C)[C@@]2(O)[C@@H](OC(C)=O)[C@H]2[C@@](O)(CO)CC[C@H](OC(C)=O)[C@]12C	BMDM	32
CC(=O)O[C@H]1[C@@H](O)[C@](O)(CO)[C@@H]2[C@H](OC(C)=O)[C@@]3(O)[C@H](/C=C(COC(=O)CC(C)C)\C=C/[C@H](OC(C)=O)[C@@]2(C)[C@H]1OC(C)=O)OC(=O)[C@@H]3C	BMDM	100
C=C1[C@H]2O[C@]3([C@@H](C)C(=O)O[C@H]3[C@H]1Cl)[C@@H](OC(C)=O)[C@H]1[C@]3(CC[C@H](OC(C)=O)[C@]1(C)[C@@H](OC(C)=O)[C@@H]2OC(C)=O)CO3	BMDM	100
C=C1CC[C@H](OC(=O)CC(C)C)[C@]2(C)[C@@H](OC(C)=O)C[C@@H](OC(C)=O)/C(C)=C\[C@@H]3OC(=O)[C@H](C)[C@@]3(O)[C@@H](OC(C)=O)[C@@H]12	BMDM	68

The reported value for C=C1CC[C@H](OC(C)=O)[C@]2(C)[C@@H](OC(C)=O)C[C@@H](OC(C)=O)/C(C)=C\[C@@H]3OC(=O)[C@H](C)[C@@]3(O)[C@@H](OC(C)=O)[C@@H]12 in terms of inhibition at 10 µM is 58.7

Field inhibition at 10 µM (entry CC(=O)O[C@H]1[C@@H](OC(=O)CC(C)C)[C@]2(CO2)[C@@H]2[C@H](OC(C)=O)[C@@]3(O)[C@H](/C=C(CO)\C=C/[C@H](OC(C)=O)[C@@]2(C)[C@H]1OC(C)=O)OC(=O)[C@@H]3C ) reads 55.8

* * *

Test system: BMDM
Test: Anti-osteoclastogenesis activity in C57BL/6 mouse BMDM cells assessed as inhibition of RANKL-induced osteoclastogenesis at 10 uM incubated for 7 days in the presence of M-CSF by TRAP-staining based microscopic analysis relative to control
Type: functional
Conditions: C57BL/6, BMDM, 168 h, time 7 day
PROPERTY MEASURED: inhibition at 10 µM (%)
Use % as the unit, but write only the number.

MOL	ASSAYED TARGET	inhibition at 10 µM [%]
CCOCC1=C/[C@@H]2OC(=O)[C@H](C)[C@@]2(O)[C@@H](OC(C)=O)[C@H]2[C@@]3(CO3)[C@H](OC(=O)CC(C)C)C[C@H](OC(C)=O)[C@]2(C)[C@@H](OC(C)=O)/C=C\1	BMDM	51.2

As a next step, examine the compound that follows.
Input C=C1[C@H]2O[C@]3([C@@H](C)C(=O)O[C@H]3[C@H]1Cl)[C@@H](OC(C)=O)[C@H]1[C@@]3(CO3)[C@H](OC(=O)CC(C)C)C[C@H](OC(C)=O)[C@]1(C)[C@@H](OC(C)=O)[C@@H]2OC(C)=O . Output inhibition at 10 µM: 51.7

* * *

Tested on: BMDM
Assay: Anti-osteoclastogenesis activity in C57BL/6 mouse BMDM cells assessed as inhibition of RANKL-induced osteoclastogenesis at 10 uM incubated for 7 days in the presence of M-CSF by TRAP-staining based microscopic analysis relative to control
Assay type: functional
Conditions: C57BL/6, BMDM, 168 h, time 7 day
Each entry below carries its reported inhibition at 10 µM.
Report the value in % with no unit label.

Solved cases below.
MOL	PROPERTY MEASURED	ASSAY RESULT
C=C1CC[C@H](OC(C)=O)[C@]2(C)[C@@H](OC(C)=O)C[C@@H](OC(C)=O)/C(COC(=O)CC(C)C)=C\[C@@H]3OC(=O)[C@H](C)[C@@]3(O)[C@@H](OC(C)=O)[C@@H]12	inhibition at 10 µM	91.3
C=C1[C@H]2O[C@]3([C@H](C)C(=O)O[C@H]3[C@H]1Cl)[C@@H](OC(C)=O)[C@H]1[C@]3(CC[C@H](OC(C)=O)[C@]1(C)[C@@H](OC(C)=O)[C@@H]2OC(C)=O)CO3	inhibition at 10 µM	12.2
CC(=O)O[C@H]1[C@@H](OC(=O)CC(C)C)[C@](O)(CO)[C@@H]2[C@H](OC(C)=O)[C@@]3(O)[C@H](/C=C(CCl)\C=C/[C@H](OC(C)=O)[C@@]2(C)[C@H]1OC(C)=O)OC(=O)[C@@H]3C	inhibition at 10 µM	20.9
CC(=O)O[C@H]1[C@@H](OC(=O)CC(C)C)[C@](O)(CO)[C@@H]2[C@H](OC(C)=O)[C@@]3(O)[C@H](/C=C(CO)\C=C/[C@H](OC(C)=O)[C@@]2(C)[C@H]1OC(C)=O)OC(=O)[C@@H]3C	inhibition at 10 µM	34.8
C=C1[C@H](Cl)[C@@H]2OC(=O)[C@H](C)[C@]23O[C@]1(O)C[C@H](OC(C)=O)[C@@]1(C)[C@@H](OC(C)=O)C[C@@H](OC(C)=O)[C@]2(CO2)[C@@H]1[C@@H]3OC(C)=O	inhibition at 10 µM	29.3
C=C1CC[C@H](OC(C)=O)[C@@]2(C)[C@@H](OC(C)=O)C[C@@H](OC(C)=O)[C@]3(CO3)[C@@H]2[C@H](OC(C)=O)[C@]2(O)[C@@H](C)C(=O)O[C@H]2[C@H]1Cl	inhibition at 10 µM	13.5
CCOCC1=C/[C@@H]2OC(=O)[C@H](C)[C@@]2(O)[C@@H](OC(C)=O)[C@H]2[C@@]3(CO3)[C@H](OC(C)=O)C[C@H](OC(=O)CC(C)C)[C@]2(C)[C@@H](OC(C)=O)/C=C\1	inhibition at 10 µM	38.4
CC(=O)O[C@H]1/C=C\C(CO)=C/[C@@H]2OC(=O)[C@H](C)[C@@]2(O)[C@@H](OC(C)=O)[C@H]2[C@@](O)(CO)[C@H](O)[C@H](OC(=O)CC(C)C)[C@H](OC(C)=O)[C@]12C	inhibition at 10 µM	62.8

According to the records, this compound C=C1[C@H]2O[C@]3([C@@H](C)C(=O)O[C@H]3[C@H]1Cl)[C@@H](OC(C)=O)[C@H]1[C@@]3(CO3)[C@H](OC(C)=O)C[C@H](OC(C)=O)[C@]1(C)[C@@H](OC(C)=O)[C@@H]2OC(C)=O displays inhibition at 10 µM of 37.1
